- tested_on: T1, Human ACVR2A (human, UniProt P27037 20-135, limits assumed)
- T1 construct: also called activin receptor, type II A
- test_method_notes: ELISA; further: test concentration or dose not given here
Examples of binders with documented optical density follow.
Answer in OD, number only, no unit symbol.

Fill in reported optical density for this entry: 369_B01 (antibody, V domains shown) VH: EVQLLESGGGLVQPGGSLRLSCAASGFTFSSYSMNWVRQAPGKGLEWVSGINYNGGYTSYADSVKGRFTISRDNSKNTLYLQMNSLRAEDTAVYYCARSANWHDTALDYWGQGTLVTVSS VL: DIQMTQSPSSLSASVGDRVTITCRASQSILSYLNWYQQKPGKAPKLLIYAVTSRASGVPSRFSGSGSGTDFTLTISSLQPEDFATYYCQQSYENPLTFGGGTKVEIK
3.36

For the binder 374_B04 (antibody, V domains shown) VH: EVQLLESGGGLVQPGGSLRLSCAASGFTFSSYSMNWVRQAPGKGLEWVSNINYNSGYTGYADSVKGRFTISRDNSKNTLYLQMNSLRAEDTAVYYCARSANWHDTALDYWGQGTLVTVSS VL: DIQMTQSPSSLSASVGDRVTITCRASQSIVSYLNWYQQKPGKAPKLLIYAVTSRASGVPSRFSGSGSGTDFTLTISSLQPEDFATYYCQQSYESPLTFGGGTKVEIK , report optical density.
3.67

# return recorded optical density for entry 369_E12 (antibody, V domains shown) VH: EVQLLESGGGLVQPGGSLRLSCAASGFTFSSYGMHWVRQAPGKGLEWVASINYNSGYTSYADSVKGRFTISRDNSKNTLYLQMNSLRAEDTAVYYCARSANWHDTALDYWGQGTLVTVSS VL: DIQMTQSPSSLSASVGDRVTITCRASQSIISYLNWYQQKPGKAPKLLIYAATSRASGVPSRFSGSGSGTDFTLTISSLQPEDFATYYCQQSYESPLTFGGGTKVEIK
2.46

Specify measured optical density for 370_E06 (antibody, V domains shown) VH: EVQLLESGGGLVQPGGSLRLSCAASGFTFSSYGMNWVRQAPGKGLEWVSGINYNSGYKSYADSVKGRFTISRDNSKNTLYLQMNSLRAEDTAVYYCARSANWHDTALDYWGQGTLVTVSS VL: DIQMTQSPSSLSASVGDRVTITCRASQSILSYLNWYQQKPGKAPKLVIYATTSLASGVPSRFSGSGSGTDFTLTISSLQPEDFATYYCQQSYDTPLTFGGGTKVEIK .
2.9

Supply reported optical density belonging to this binder: 368_F03 (antibody, V domains shown) VH: EVQLLESGGGLVQPGGSLRLSCAASGFTFDSYSMNWVRQAPGKGLEWVAGINYNSGYTGYADSVKGRFTISRDNSKNTLYLQMNSLRAEDTAVYYCAKSANWHDTALDYWGQGTLVTVSS VL: DIQMTQSPSSLSASVGDRVTITCRASQSIISYLNWYQQKPGKAPKLVIYAATSRHSGVPSRFSGSGSGTDFTLTISSLQPEDFATYYCQQSYDSPLTFGGGTKVEIK
2.35
